# Test system: VchCAST RNA-guided transposition machinery (E. coli BL21(DE3) host, lacZ target)
# measurement protocol: relative integration efficiency (T-RL orientation) vs wild-type transposon end (log2 (normalized fold change)); transposon end mutated: right end (5 bp flank + 75 bp right end); higher = more efficient transposition
Please use YES whenever relative integration efficiency (log2) is not below -3, and NO whenever it is.

{"entry sequence": "ACATTTGTTGATACAACCATATATTGATATCTCCAACCATAAGTTGATATTTTTCACAACCATAAGTTGATATTTTCTCTGATCATAGTCAGACCAACATTGCTACGACCCGTATTCGCACCGACAC", "group": "YES"}
{"entry sequence": "ACATTTGTTGATACAACCATTAAATGATAATTCCACCCATAAATTGATAATTATCACACCCAATTTAACTATAACGCTCTGATCATAGTCAGACCAACATTGCTACGACCCGTATTCGCACCGACAC", "group": "YES"}
{"entry sequence": "ACATTTGTTGATACAACCATAAAATCATAATTACCCCCATCAATTGATAATTATCCCACCCAATTTAACTATAACGCTCTGATCATAGTCAGACCAACATTGCTACGACCCGTATTCGCACCGACAC", "group": "NO"}
{"entry sequence": "ACATTTGTTGATACAAGGTAAAAATGATAATTACACCCATAAATTGATAATTATCACACCCATAAATTGATATTGCCTCTGATCATAGTCAGACCAACATTGCTACGACCCGTATTCGCACCGACAC", "group": "YES"}
{"entry sequence": "TGATTTGTTGATACAACCATAAAATGATAATTACACCCATAAATTGATAATTATCACACCCATAAATTGATATTGCCTCTGATCATAGTCAGACCAACATTGCTACGACCCGTATTCGCACCGACAC", "group": "YES"}
{"entry sequence": "ACATTTGTGGATACAACCCTAAAATGATAATTACACCCATAAATTGATCATTATCACCCCCAATTTAACTATAACGCTCTGATCATAGTCAGACCAACATTGCTACGACCCGTATTCGCACCGACAC", "group": "YES"}

Determine whether this sequence has relative integration efficiency (log2) no lower than -3: `ACATTTGTTGATACAACCATAAAATGATAATTACACCCATAAATTGATAATTAGACACAAACGCCCGGTCGCGGTAAGAGGATCATAGTCAGACCAACATTGCTACGACCCGTATTCGCACCGACAC`
YES

# check: relative integration efficiency (log2) of `CAAAATGTAAAAACAACCATAAAATGATAATTAGAAACCATACGCTGAAATAAAAACAACCATACCTTGAAATTGCTTATAAAGTGTACAACACTTGAGAAAGTTTACTACAGGTATGCACCGACAC` is greater than or equal to -3
YES

# bool: relative integration efficiency (log2) of `ACATTTGTTGATACAACCATCAAATGATAATTACACCCCTACATTGATAATTATCACACCCAATTTAACTATAACGCTCTGATCATAGTCAGACCAACATTGCTACGACCCGTATTCGCACCGACAC` >= -3
NO
